Target: T1, AFP158/HLA-A*02:01 complex (human)
T1 construct: biotinylated on the BSP by BirA for ELISA and panning; also called biotinylated AFP158/HLA-A*02:01 complex; Bio-AFP158
Test: SPR, crude scFv captured;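 note: Peptide–MHC complex flowed at several concentrations over sensorchip-captured scFv, Kd derived from on- and off-rates obtained from the association and dissociation curves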
Measured metric: pKd
Units for pKd: none; it is -log10 of a concentration expressed in mol/L.

AS170036 VL1VH1-VHG108D (scFv) scFv: QSALTQPRSVSGSPGQSVTISCAGTSSDVGSENYVSWYQQHPGKAPKLMIYQVNKRASGVPDRFSGSKSGNTASLTISGLQAEDEADYYCASYRSSDHNIVFGGGTKLTVLGGGGSGGGGSGGGGSEVQLVESGGGLVQPGGSLRLSCAASGFTFSSYAMSWVRQAPGKGLEWVSTINSGTGSPYYADSVKGRFTISRDNSKNTLYLQMNSLRAEDTAVYYCAKNFFDGSWFLDPPAMDYWGQGTLVTVSSHHHHHH : 7.38
AS170036 VL1VH1 HP58D (scFv) scFv: QSALTQPRSVSGSPGQSVTISCAGTSSDVGSENYVSWYQQHPGKAPKLMIYQVNKRASGVPDRFSGSKSGNTASLTISGLQAEDEADYYCASYRSSDHNIVFGGGTKLTVLGGGGSGGGGSGGGGSEVQLVESGGGLVQPGGSLRLSCAASGFTFSSYAMSWVRQAPGKGLEWVSTINSGTGSDYYADSVKGRFTISRDNSKNTLYLQMNSLRAEDTAVYYCAKNFFDGSWFLGPPAMDYWGQGTLVTVSSHHHHHH : 6.18
AS170036 VL1VH1 HP110G (scFv) scFv: QSALTQPRSVSGSPGQSVTISCAGTSSDVGSENYVSWYQQHPGKAPKLMIYQVNKRASGVPDRFSGSKSGNTASLTISGLQAEDEADYYCASYRSSDHNIVFGGGTKLTVLGGGGSGGGGSGGGGSEVQLVESGGGLVQPGGSLRLSCAASGFTFSSYAMSWVRQAPGKGLEWVSTINSGTGSPYYADSVKGRFTISRDNSKNTLYLQMNSLRAEDTAVYYCAKNFFDGSWFLGPGAMDYWGQGTLVTVSSHHHHHH : 6.59
AS170036 VL1VH1 HG108L (scFv) scFv: QSALTQPRSVSGSPGQSVTISCAGTSSDVGSENYVSWYQQHPGKAPKLMIYQVNKRASGVPDRFSGSKSGNTASLTISGLQAEDEADYYCASYRSSDHNIVFGGGTKLTVLGGGGSGGGGSGGGGSEVQLVESGGGLVQPGGSLRLSCAASGFTFSSYAMSWVRQAPGKGLEWVSTINSGTGSPYYADSVKGRFTISRDNSKNTLYLQMNSLRAEDTAVYYCAKNFFDGSWFLLPPAMDYWGQGTLVTVSSHHHHHH : 6.70

Shifting focus to the binder that follows.
Entry AS170036 VL1VH1 HG108Q (scFv) scFv: QSALTQPRSVSGSPGQSVTISCAGTSSDVGSENYVSWYQQHPGKAPKLMIYQVNKRASGVPDRFSGSKSGNTASLTISGLQAEDEADYYCASYRSSDHNIVFGGGTKLTVLGGGGSGGGGSGGGGSEVQLVESGGGLVQPGGSLRLSCAASGFTFSSYAMSWVRQAPGKGLEWVSTINSGTGSPYYADSVKGRFTISRDNSKNTLYLQMNSLRAEDTAVYYCAKNFFDGSWFLQPPAMDYWGQGTLVTVSSHHHHHH has what pKd?
6.70

Origin of the recorded values: patent US20240279318A1
